- tested system: glutathione-S-transferase (GST) tagged LXRalpha LBD (ligand binding domain) (Homo sapiens)
- Construct: purchased Invitrogen pv4655
- Sequence (Q13133 209-447 limits assumed): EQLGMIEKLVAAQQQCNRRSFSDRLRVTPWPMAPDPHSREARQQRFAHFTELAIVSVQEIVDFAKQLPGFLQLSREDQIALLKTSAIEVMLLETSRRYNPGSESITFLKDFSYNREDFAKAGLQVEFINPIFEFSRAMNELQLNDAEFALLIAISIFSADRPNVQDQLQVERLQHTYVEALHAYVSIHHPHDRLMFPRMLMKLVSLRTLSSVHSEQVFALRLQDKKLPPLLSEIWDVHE
- assay protocol: LanthaScreen TR-FRET Liver X Receptor Coactivator Assay, co-activator recruitment to LXRalpha LBD
- Format: biochemical
- test context: efficacy at max dose, in relation to reference dual agonist T0901317; read-out: LXR alpha Activity @ max dose (%)
Doc: threshold 30% (exclusive). Items with Emax beneath it return True; others return False.

Task item: Lab note: Emax threshold 30%. Does this molecule come in strictly under it? CN(C)C(=O)c1ccc(N2CCC(OC3CCN(C(=O)C(F)(F)F)CC3)CC2)cc1Cl
Reply: True

Task item: Emax strictly < 30% for this molecule? CNC(=O)c1ccc(N2CCC(CC3CCN(C(=O)[C@](O)(c4cccc(C(C)C)c4)C(F)(F)F)CC3)CC2)nc1Cl
Reply: False

Task item: Does this molecule meet the criterion Emax < 30%? COc1nc(N2CCC(CC3CCN(C(=O)[C@](O)(c4cc(Cl)cc(Cl)c4)C(F)(F)F)CC3)CC2)ccc1C(=O)N(C)C
Reply: True

Task item: Item CCc1cccc(C(O)(C(=O)N2CCC(CC3CCN(c4ccc(C(=O)N(C)C)c(Cl)n4)CC3)CC2)C(F)(F)F)c1 (centres unmarked) : Emax beneath 30%, strictly?
Reply: True

Task item: Does the reported Emax of the following molecule sit strictly below 30%? CN(C)C(=O)c1ccc(N2CCC(CC3CCN(C(=O)[C@](O)(c4ccccc4)C(F)(F)F)CC3)CC2)cc1
Reply: False
